experiment: inhibitors of CD8+ T cell-vesicle binding, pilot screen, LFA-1/ICAM-1 modulator project, MLPCN validation set, flow cytometry (AID 2523); details: 2C mouse CD8+ T cells, at 7 µM, stronger effect = lower value;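 also: mean PE anti-B7-1 fluorescence of CD8+ cells relative to row control; 100% = QL9-loaded vesicles with DMSO vehicle in the same plate row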
READOUT LABEL: vesicle binding response (%)
# number only, unit % dropped from output

Take a look at these entries with their results.
1. CCc1cc2c(=O)c(-c3ccc(F)cc3)c(C)oc2cc1OCC(=O)O :: 168
2. Nc1ccc(N)c(C(=O)O)c1 :: 122
3. CCCCC(=O)O[C@]1(C(=O)CO)CC[C@H]2[C@@H]3CCC4=CC(=O)CC[C@]4(C)[C@H]3[C@@H](O)C[C@@]21C :: 271
4. Cc1ccc(CSCC(=O)NCCCN2CCOCC2)cc1 :: 243
5. COC(=O)c1cc(-c2ccc(OC)c(OC)c2)on1 :: 155
6. Oc1ccc(/C=C/c2cc(O)cc(O)c2)cc1 :: 225

Consider COc1ccc(OC)c(-n2c(Cn3c(-c4ccccn4)nc4ccccc43)n[nH]c2=S)c1 . Its measured vesicle binding response is 144

Consider COc1cc(OC)c(C(=O)CCCN2CCCC2)c(OC)c1 . Its measured vesicle binding response is 214

Consider COc1ccc(CCN(C)CCCC(C#N)(c2ccc(OC)c(OC)c2)C(C)C)cc1OC (stereo unspecified) . Its measured vesicle binding response is 183

Consider COc1ccc2[nH]cc(C(=O)CCl)c2c1 . Its measured vesicle binding response is 172

Consider COCc1cc(=O)[nH]c(Nc2nc3ccccc3o2)n1 . Its measured vesicle binding response is 117

###

test: RPL19A-GFP modulators, yeast TOR pathway, confirmation, cell-based, S. cerevisiae, flow cytometry, cherry picks, mother/daughter gates (AID 2270); conditions: S. cerevisiae RPL19A-GFP strain, 3 h, measured here: daughter cell gate, at 10 µM, stronger effect = lower value, 100 = same GFP as DMSO wells
Collected GFP response vs DMSO values appear next to each entry.
# number only, unit % dropped from output

Take a look at these entries with their results.
1. Cc1ccc(NC(=O)CC2SC(=O)N(c3ccccc3)C2=O)cc1 (stereo not drawn) :: 101
2. O=C(OCCOc1ccccc1)c1n[nH]c2ccccc12 :: 95.7
3. O=[N+]([O-])/C=C/c1c(OCc2ccccc2)ccc2ccccc12 :: 104
4. COc1ccc(N(CC(=O)N/N=C/c2cc(OC)ccc2OC)S(=O)(=O)c2ccccc2)cc1 :: 97.4
5. O=C(Nc1nc(-c2ccc(F)cc2)cs1)c1cnccn1 :: 98.3
6. COc1ccc(Br)cc1/C=C/C(=O)c1ccc(NC(C)=O)cc1 :: 98.4
7. Cc1ccc(C(=O)N2c3ccccc3NC(=O)C2C)cc1 (stereo not drawn) :: 98.1
8. O=C1c2cccc3c(N4CCCCC4)ccc(c23)C(=O)N1CCO :: 94.9

Consider C/C(=N\NC(=O)c1ccc(Br)cc1)c1ccccc1 . Its measured GFP response vs DMSO is 97.9

Consider NC(=O)c1ccc(Oc2ccc(-c3nnco3)cc2)c([N+](=O)[O-])c1 . Its measured GFP response vs DMSO is 100

Consider Cn1c(N2CCCC2)nc2c1c(=O)n(Cc1ccc(Cl)cc1)c(=O)n2C . Its measured GFP response vs DMSO is 84.5

Consider CCc1noc(C)c1C(=O)Nc1nc(-c2cc(C)ccc2C)c(C)s1 . Its measured GFP response vs DMSO is 103

Consider Cc1nn(C(=O)c2ccco2)c(C)c1Sc1ccccc1 . Its measured GFP response vs DMSO is 97
